SUBJECT_OF_TEST: MRP1 (Homo sapiens (Human))
Sequence (P33527 whole entry): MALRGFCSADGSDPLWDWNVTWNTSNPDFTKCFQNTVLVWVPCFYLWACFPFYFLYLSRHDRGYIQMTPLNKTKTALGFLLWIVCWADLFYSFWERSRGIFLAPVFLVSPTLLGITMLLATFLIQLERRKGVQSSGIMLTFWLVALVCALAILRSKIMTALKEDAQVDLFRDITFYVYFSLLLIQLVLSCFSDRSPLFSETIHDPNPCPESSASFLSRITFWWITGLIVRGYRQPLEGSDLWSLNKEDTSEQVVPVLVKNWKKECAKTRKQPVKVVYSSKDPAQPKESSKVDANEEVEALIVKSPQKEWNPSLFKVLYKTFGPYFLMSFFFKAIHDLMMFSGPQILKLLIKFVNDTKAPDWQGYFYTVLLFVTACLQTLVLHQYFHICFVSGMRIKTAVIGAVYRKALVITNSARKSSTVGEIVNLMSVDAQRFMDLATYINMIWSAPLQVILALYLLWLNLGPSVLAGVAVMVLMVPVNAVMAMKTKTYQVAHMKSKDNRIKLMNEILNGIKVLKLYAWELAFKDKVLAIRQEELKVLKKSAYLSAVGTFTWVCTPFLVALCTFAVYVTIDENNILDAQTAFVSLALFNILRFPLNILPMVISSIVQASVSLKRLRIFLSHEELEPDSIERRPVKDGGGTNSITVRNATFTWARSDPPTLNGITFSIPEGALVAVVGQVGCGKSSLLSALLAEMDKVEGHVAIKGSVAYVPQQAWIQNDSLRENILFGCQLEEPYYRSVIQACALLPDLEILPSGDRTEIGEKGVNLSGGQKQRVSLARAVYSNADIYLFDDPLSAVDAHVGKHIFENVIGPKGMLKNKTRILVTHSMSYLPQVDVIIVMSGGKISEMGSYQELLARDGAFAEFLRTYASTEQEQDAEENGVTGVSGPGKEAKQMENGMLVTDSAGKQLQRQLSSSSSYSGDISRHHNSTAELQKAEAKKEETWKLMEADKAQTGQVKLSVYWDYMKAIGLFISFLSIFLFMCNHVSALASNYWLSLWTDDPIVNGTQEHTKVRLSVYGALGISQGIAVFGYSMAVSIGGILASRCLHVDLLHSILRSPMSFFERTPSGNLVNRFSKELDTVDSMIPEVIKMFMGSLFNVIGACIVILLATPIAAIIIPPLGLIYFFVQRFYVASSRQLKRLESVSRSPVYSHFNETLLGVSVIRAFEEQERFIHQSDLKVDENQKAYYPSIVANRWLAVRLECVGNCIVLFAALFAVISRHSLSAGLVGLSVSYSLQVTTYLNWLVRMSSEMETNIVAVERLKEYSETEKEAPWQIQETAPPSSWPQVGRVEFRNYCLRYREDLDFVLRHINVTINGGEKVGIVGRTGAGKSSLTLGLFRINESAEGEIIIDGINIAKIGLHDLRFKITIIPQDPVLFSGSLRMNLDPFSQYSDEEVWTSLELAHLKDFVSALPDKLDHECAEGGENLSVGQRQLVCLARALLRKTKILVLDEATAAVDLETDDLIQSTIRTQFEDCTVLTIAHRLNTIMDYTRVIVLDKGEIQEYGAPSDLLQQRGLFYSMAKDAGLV
EXPERIMENT_NOTES: Flow assay, calcein efflux in transfected HEK293 cells expressing MRP1
Type: cell-based
CONDITION_INFO: 10 μM compound; 200 nM calcein AM
REPORTED_METRIC: Flow-MRP1, Fold Increase (MRP1 inhibition, calcein efflux: treated/control ratio) (fold)
Report as a plain number; the unit fold is understood.

Q: Write down measured Flow-MRP1, Fold Increase (MRP1 inhibition, calcein efflux: treated/control ratio) (MRP1 (Homo sapiens (Human))) for this compound. CO/C(=C\c1ccc(O)cc1)C(=O)N/C=C/c1cc(Br)c(O)c(Br)c1 [Botryllamide G, botryllamide G]
Ans: 2.1

Q: Write down measured Flow-MRP1, Fold Increase (MRP1 inhibition, calcein efflux: treated/control ratio) (MRP1 (Homo sapiens (Human))) for this compound. CO/C(=C\c1ccc(O)cc1)C(=O)N/C=C/c1cc(Br)c(OC)c(Br)c1 [Botryllamide A, botryllamide A]
Ans: 4.5

Q: Write down measured Flow-MRP1, Fold Increase (MRP1 inhibition, calcein efflux: treated/control ratio) (MRP1 (Homo sapiens (Human))) for this compound. CO/C(=C\c1ccc(O)cc1)C(=O)N/C=C/c1ccc(OC)c(Br)c1 [Botryllamide D, botryllamide D]
Ans: 2.39

Q: Write down measured Flow-MRP1, Fold Increase (MRP1 inhibition, calcein efflux: treated/control ratio) (MRP1 (Homo sapiens (Human))) for this compound. CO/C(=C\c1ccc(O)cc1)C(=O)N/C=C/c1ccc(OC)cc1 [Botryllamide E, botryllamide E]
Ans: 1.96

Q: Write down measured Flow-MRP1, Fold Increase (MRP1 inhibition, calcein efflux: treated/control ratio) (MRP1 (Homo sapiens (Human))) for this compound. CO/C(=C\c1ccc(O)cc1)C(=O)N/C=C/c1ccc(OC)cc1 [Botryllamide I, botryllamide I]
Ans: 3.14

Q: Write down measured Flow-MRP1, Fold Increase (MRP1 inhibition, calcein efflux: treated/control ratio) (MRP1 (Homo sapiens (Human))) for this compound. CO/C(=C\c1ccc(O)cc1)C(=O)N/C=C/c1ccc(O)cc1 [Botryllamide F, botryllamide F]
Ans: 3.33

----------
SUBJECT_OF_TEST: ABCG2 (Homo sapiens (Human), UniProt Q9UNQ0)
Sequence (Q9UNQ0 whole entry): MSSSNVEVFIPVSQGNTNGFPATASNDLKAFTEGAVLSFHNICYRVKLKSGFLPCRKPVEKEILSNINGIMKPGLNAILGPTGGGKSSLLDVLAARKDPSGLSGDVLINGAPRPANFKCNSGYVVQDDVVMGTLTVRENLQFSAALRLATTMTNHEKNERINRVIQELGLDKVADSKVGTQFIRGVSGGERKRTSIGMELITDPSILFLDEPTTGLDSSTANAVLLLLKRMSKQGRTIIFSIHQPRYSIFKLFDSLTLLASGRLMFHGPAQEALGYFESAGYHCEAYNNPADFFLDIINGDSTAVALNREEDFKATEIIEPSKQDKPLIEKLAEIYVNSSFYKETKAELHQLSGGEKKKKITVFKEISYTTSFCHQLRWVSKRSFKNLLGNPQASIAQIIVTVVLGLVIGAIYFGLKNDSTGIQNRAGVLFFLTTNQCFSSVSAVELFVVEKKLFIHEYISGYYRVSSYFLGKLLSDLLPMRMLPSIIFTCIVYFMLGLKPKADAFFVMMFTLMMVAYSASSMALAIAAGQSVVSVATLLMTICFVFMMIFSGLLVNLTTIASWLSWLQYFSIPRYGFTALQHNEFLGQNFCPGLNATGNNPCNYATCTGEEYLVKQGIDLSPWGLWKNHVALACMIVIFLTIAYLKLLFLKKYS
EXPERIMENT_NOTES: Pheophorbide a accumulation assay for ABCG2 inhibitors in NCI-H460/MX20 cells
Assay type: cell-based
CONDITION_INFO: 1 μM pheophorbide a, 18 h
REPORTED_METRIC: pIC50
The value called pIC50 is obtained by taking minus log10 of the concentration in mol/L.

Q: Supply pIC50 value. Item: CO/C(=C\c1ccc(O)cc1)C(=O)N/C=C/c1cc(Br)c(OC)c(Br)c1 [Botryllamide A, botryllamide A]
Ans: 4.48

Q: Supply pIC50 value. Item: CO/C(=C\c1ccc(O)cc1)C(=O)N/C=C/c1ccc(OC)cc1 [Botryllamide I, botryllamide I]
Ans: 4.38

Q: Supply pIC50 value. Item: CO/C(=C\c1ccc(O)cc1)C(=O)N/C=C/c1cc(Br)c(O)c(Br)c1 [Botryllamide G, botryllamide G]
Ans: 5.16

Q: Supply pIC50 value. Item: CO/C(=C\c1ccc(O)cc1)C(=O)N/C=C/c1ccc(OC)cc1 [Botryllamide E, botryllamide E]
Ans: 4.63

Q: Supply pIC50 value. Item: CO/C(=C\c1ccc(O)cc1)C(=O)N/C=C/c1ccc(O)cc1 [Botryllamide F, botryllamide F]
Ans: 4.78

Q: Supply pIC50 value. Item: CO/C(=C\c1ccc(O)cc1)C(=O)N/C=C/c1ccc(OC)c(Br)c1 [Botryllamide D, botryllamide D]
Ans: 4.79

----------
SUBJECT_OF_TEST: ABCG2 (Homo sapiens (Human))
EXPERIMENT_NOTES: Pheophorbide a accumulation assay for ABCG2 inhibitors in NCI-H460/MX20 cells
Assay type: cell-based
CONDITION_INFO: 80 μM compound, normalized to 10 μM FTC
REPORTED_METRIC: Pheophorbide a max activity, % of FTC response (%)
Report as a plain number; the unit % is understood.

Q: Supply Pheophorbide a max activity, % of FTC response value. Item: CO/C(=C\c1ccc(O)cc1)C(=O)N/C=C/c1ccc(OC)cc1 [Botryllamide E, botryllamide E]
Ans: 68.8

Q: Supply Pheophorbide a max activity, % of FTC response value. Item: CO/C(=C\c1ccc(O)cc1)C(=O)N/C=C/c1cc(Br)c(OC)c(Br)c1 [Botryllamide A, botryllamide A]
Ans: 89.7

Q: Supply Pheophorbide a max activity, % of FTC response value. Item: CO/C(=C\c1ccc(O)cc1)C(=O)N/C=C/c1ccc(O)cc1 [Botryllamide F, botryllamide F]
Ans: 81.0

Q: Supply Pheophorbide a max activity, % of FTC response value. Item: CO/C(=C\c1ccc(O)cc1)C(=O)N/C=C/c1ccc(OC)cc1 [Botryllamide I, botryllamide I]
Ans: 71.3

Q: Supply Pheophorbide a max activity, % of FTC response value. Item: CO/C(=C\c1ccc(O)cc1)C(=O)N/C=C/c1ccc(OC)c(Br)c1 [Botryllamide D, botryllamide D]
Ans: 63.5

----------
Exercise: for every item that follows, state its recorded Flow-Pgp, Fold Increase (Pgp inhibition, rhodamine efflux: treated/control ratio).
SUBJECT_OF_TEST: Pgp (Homo sapiens (Human), UniProt P08183)
Sequence (P08183 whole entry): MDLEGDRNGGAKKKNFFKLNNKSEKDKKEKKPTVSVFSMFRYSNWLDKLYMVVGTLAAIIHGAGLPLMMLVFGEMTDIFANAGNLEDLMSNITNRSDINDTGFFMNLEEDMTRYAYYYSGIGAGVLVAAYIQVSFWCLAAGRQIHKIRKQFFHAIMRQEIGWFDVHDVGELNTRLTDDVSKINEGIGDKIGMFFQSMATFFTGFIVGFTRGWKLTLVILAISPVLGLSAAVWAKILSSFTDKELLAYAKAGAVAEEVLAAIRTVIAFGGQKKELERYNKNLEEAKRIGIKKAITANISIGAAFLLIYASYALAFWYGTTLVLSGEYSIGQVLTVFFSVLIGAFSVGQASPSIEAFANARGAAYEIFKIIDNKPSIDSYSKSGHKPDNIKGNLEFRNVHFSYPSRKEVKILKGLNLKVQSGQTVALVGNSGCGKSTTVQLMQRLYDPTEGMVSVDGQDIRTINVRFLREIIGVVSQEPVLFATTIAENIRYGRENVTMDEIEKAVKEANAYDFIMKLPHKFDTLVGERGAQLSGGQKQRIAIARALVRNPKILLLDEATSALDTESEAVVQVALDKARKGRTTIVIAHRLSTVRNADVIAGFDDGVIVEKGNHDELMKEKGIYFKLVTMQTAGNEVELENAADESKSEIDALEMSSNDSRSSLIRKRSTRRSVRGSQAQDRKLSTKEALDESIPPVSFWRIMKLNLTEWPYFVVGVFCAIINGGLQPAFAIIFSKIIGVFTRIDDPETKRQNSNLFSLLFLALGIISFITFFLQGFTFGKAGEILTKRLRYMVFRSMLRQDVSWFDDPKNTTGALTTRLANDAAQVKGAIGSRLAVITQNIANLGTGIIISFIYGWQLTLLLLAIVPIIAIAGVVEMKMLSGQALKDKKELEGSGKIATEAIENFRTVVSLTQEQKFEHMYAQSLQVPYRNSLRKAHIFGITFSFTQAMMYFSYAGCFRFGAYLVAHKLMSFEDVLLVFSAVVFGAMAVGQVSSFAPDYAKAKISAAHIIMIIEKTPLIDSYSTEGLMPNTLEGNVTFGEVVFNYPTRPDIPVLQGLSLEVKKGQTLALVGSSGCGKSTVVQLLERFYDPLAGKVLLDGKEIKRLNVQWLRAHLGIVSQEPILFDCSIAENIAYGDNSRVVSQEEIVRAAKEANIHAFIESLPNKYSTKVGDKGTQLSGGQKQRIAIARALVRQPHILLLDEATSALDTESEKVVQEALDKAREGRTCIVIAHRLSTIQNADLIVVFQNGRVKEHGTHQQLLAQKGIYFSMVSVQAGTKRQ
EXPERIMENT_NOTES: Flow assay, rhodamine 123 efflux in transfected HEK293 cells expressing Pgp
Assay type: cell-based
CONDITION_INFO: 10 μM compound; 0.5 μg/ml rhodamine 123
Report as a plain number; the unit fold is understood.

Q: Supply Flow-Pgp, Fold Increase (Pgp inhibition, rhodamine efflux: treated/control ratio) value. Item: CO/C(=C\c1ccc(O)cc1)C(=O)N/C=C/c1ccc(OC)cc1 [Botryllamide I, botryllamide I]
Ans: 0.8

Q: Supply Flow-Pgp, Fold Increase (Pgp inhibition, rhodamine efflux: treated/control ratio) value. Item: CO/C(=C\c1ccc(O)cc1)C(=O)N/C=C/c1ccc(O)cc1 [Botryllamide F, botryllamide F]
Ans: 0.59

Q: Supply Flow-Pgp, Fold Increase (Pgp inhibition, rhodamine efflux: treated/control ratio) value. Item: CO/C(=C\c1ccc(O)cc1)C(=O)N/C=C/c1cc(Br)c(O)c(Br)c1 [Botryllamide G, botryllamide G]
Ans: 0.68

Q: Supply Flow-Pgp, Fold Increase (Pgp inhibition, rhodamine efflux: treated/control ratio) value. Item: CO/C(=C\c1ccc(O)cc1)C(=O)N/C=C/c1cc(Br)c(OC)c(Br)c1 [Botryllamide A, botryllamide A]
Ans: 17.63

Q: Supply Flow-Pgp, Fold Increase (Pgp inhibition, rhodamine efflux: treated/control ratio) value. Item: CO/C(=C\c1ccc(O)cc1)C(=O)N/C=C/c1ccc(OC)c(Br)c1 [Botryllamide D, botryllamide D]
Ans: 1.49

Q: Supply Flow-Pgp, Fold Increase (Pgp inhibition, rhodamine efflux: treated/control ratio) value. Item: CO/C(=C\c1ccc(O)cc1)C(=O)N/C=C/c1ccc(OC)cc1 [Botryllamide E, botryllamide E]
Ans: 0.76

Source listed as patent US8470888B2.
